- Tested on: Escherichia coli
- method_notes: Antibacterial activity against Escherichia coli at 100 mM after 16 to 24 hrs by disk diffusion assay
- Assay type: functional
- condition_description: read-out: DIZ
Readings of zone of inhibition at 100000 µM for the listed molecules
attribute_measured: zone of inhibition at 100000 µM (mm)

test_smiles: CCCCCc1cc(O)ccc1C
target_under_test: Escherichia coli
attribute_measured: zone of inhibition at 100000 µM
numeric_readout: 1
//
test_smiles: CCCCCc1cc(O)cc(O)c1CCC
target_under_test: Escherichia coli
attribute_measured: zone of inhibition at 100000 µM
numeric_readout: 4
//
test_smiles: CCCCCc1cc(O)cc(O)c1CC
target_under_test: Escherichia coli
attribute_measured: zone of inhibition at 100000 µM
numeric_readout: 4
//
test_smiles: CCCCCc1cc(O)cc(O)c1C
target_under_test: Escherichia coli
attribute_measured: zone of inhibition at 100000 µM
numeric_readout: 5

###

- Tested on: Bacillus subtilis
- method_notes: Antibacterial activity against Bacillus subtilis at 100 mM after 16 to 24 hrs by disk diffusion assay
- Format: functional
- condition_description: read-out: DIZ

test_smiles: CCCCCc1cc(O)cc(O)c1CCC
unit_string: mm
zone of inhibition at 100000 µM: 4
//
test_smiles: CCCCCc1cc(O)ccc1C
unit_string: mm
zone of inhibition at 100000 µM: 1
//
test_smiles: CCCCCc1cc(O)cc(O)c1CC
unit_string: mm
zone of inhibition at 100000 µM: 1
//
test_smiles: CCCCCc1cc(O)cc(O)c1C
unit_string: mm
zone of inhibition at 100000 µM: 1
